The reported numbers originate from the nanobody polyreactivity screen of Harvey et al. (2022).

assay: yeast display, Sf9 membrane polyspecificity reagent, FACS + sequencing; frameworks hold sequencing errors
MEASURED METRIC: polyreactivity (PSR sort gate)

Guide cases for polyreactivity (PSR sort gate), answers given:
PRIMARY SEQUENCE	MEASURED METRIC	OBSERVED MEASUREMENT
QVQRVESGGGLVQAGGSLRLSCAASGGTFAFNTMGWYRQAPGIERELVADISSGGSTNYADSVKGRFTISRDNAKNTVYLQMNRLKPVDSAVYYGNGGWDILYLQGDLDYWGQGTQVTVSS	polyreactivity (PSR sort gate)	low polyreactivity
QLQLVESVGGVVQPGGSLRLSSAASGSNFRYYAIGWYRQAPGKERELVAAINWSGGSTYYADSVKGRVTISRDNAKNTVYLQMNSLKPEDTAVYYWAASWYYCRRYDYWGQGTQVTVSS	polyreactivity (PSR sort gate)	high polyreactivity
QVQLVESGGGLVQAGGSLRLSCDASGRTFLTNTMGWYRQAPGKERELVAAISSGGSTKYADSVKGRFTISRDNAKNTVYLQMNSLKPEDNAVYYCAATGWRYGYKYYYWGQGTQVTVSS	polyreactivity (PSR sort gate)	high polyreactivity
QVQLVDSGGGLVQAGGSLRLSCAASGSTFTYYAMGWYRQAPGKERELVAAIRNSDGTTYYADSVKGRFTISRDNAKNTVYLQMNSLKPEDTAVYYCAAGPRGRWSTYDYWGQGTQVTVSS	polyreactivity (PSR sort gate)	low polyreactivity
QVQLVESGGGIVQAGGSLRFSCAASGFTFWKYTRGWYRQAPGKERELVAAINGGGGDTYADSVKGRFTISRDNAKNTVYLQMNSLKPEDTAVYYCAARYGTGTTWVQPTEMDYWGQGTQVTVSL	polyreactivity (PSR sort gate)	low polyreactivity
QVQLVESGGGLVQAGGSLRLSCAASGSIFHWYAMGWYRQAPGKERELVAAISWSGGSTYYADSVKGRFTISRDNAKNTVYLQRNSLKPEDTAVYYCNKYIRYPFKRYGYWGQGTQVTVSS	polyreactivity (PSR sort gate)	high polyreactivity

Ask: Look up polyreactivity (PSR sort gate): QVQLLESGGGLVQAGGSLRLSCAAYGSTFGYNDMGWYRQAPGKVRELVAAITRRSGSTYYADSVKGRFTISRDNAKNSVNLQMNSLKPEDTAVYYCAASYHYGDRWPIRMDYWGQGTQVTVSS
Reply: low polyreactivity

Ask: What polyreactivity (PSR sort gate) value was documented for this sequence, QVQLVESGGGLVQAGGSLRLSCAASGFTFLYYAMGWYRQAPGKERELVAAISASSDRTYYADSVKGRFTISRDNAMNTVYLQMNSLKPDDTAVYYCAAYNSRVGGYRGYGYWGQGTLVTVSS ?
Reply: high polyreactivity

Ask: State the recorded polyreactivity (PSR sort gate) for this entry: QVQLVESGGGLVQAGGSLRLSCAASGSTFQWYTMGWYRQAPGKERELVAAISRSGGRTYYADSVKGRFTISRDNAKNTVYLQMNSLKPEDTAVYYCAARWGRLPEQYRYDYWGQGTQVTVSS
Reply: high polyreactivity

Ask: Please look up its polyreactivity (PSR sort gate): QVQLVESGGGLVQAGGSLRLSCAASGSTFDTYAMGWYRQAPGKERELVAAISRSGTSTYYADSVKGRFTISRDNAKNTVYLQMNSLKPEDTAVYFCNNPWYSYRYGGVGYGYWGQGTQVTVSS
Reply: low polyreactivity

Ask: Fill in: polyreactivity (PSR sort gate) of QVQLVESGGGLVQAGGSLRLSCAASGFIFHSYAMRWYRQAPGKERELVAAITHSGGRTYYADCVKGRFTISRDNAKNTVYLQMNSLKPEDTAVYYCAAVTRRHEYDYWGQGSQVTVSS is ___
Reply: high polyreactivity

* * *

assay: yeast display, Sf9 membrane polyspecificity reagent, FACS + sequencing; frameworks hold sequencing errors
MEASURED METRIC: polyreactivity (PSR sort gate)

Please review the following examples before continuing.
PRIMARY SEQUENCE	polyreactivity (PSR sort gate)
QVQLVESGGGLVQAGGSLRLSCAASGSTFGGYAMGWYRQAPGKERELVAAISGSGVRTYYADSVKGRFTISRDNAKNTVYLQMNSLKPEDTAVYYCAKRVRYPGDRYYYWGQGTQVTVSS	high polyreactivity
QVQLVESGGGLVQAGGSLRLSCAASGSTFPVYAMGWYRQAPGKERELVAAISRAGSTNYADSVKGRFTISRDNAKNSVYLQMNSLKPEDTAVYYCAARGYLWAGEWYVRRDDWGQGTQVTVSS	high polyreactivity
QVQLVESGGGLVQAGGSLRLSCAASGSIFYVNTMGWYRQAPGKERELVAVIDYGGDSTYYADSVKGRFTISRDNAKNTVFLQMNSLKPEDTAVYYCAADAYESGNWEANGYWGQGTEVTVSS	low polyreactivity
QVQLVESGGGLVQAGCSLRLSCAASGNTYYSYTMGWYRQAPGKERELVAAITGSGSTYYADSVKGRFTISRDNAKNTVYLQMNSLKPEDTAVYYCASRYVERHTDYYYWGQGTQVTVSS	low polyreactivity

Switching to the query record.
Ask: polyreactivity (PSR sort gate) for QDQLVESGGGLVQAGGILRLICAASGLTFASYGMGWYRQAPGKERELVAAISSSGGITYYADSVKGRFTISRDNAKNTVYLQMNSLKPEDTAVYYCAAAKRSGYTGFKYYYWGQGTQVTVSS ?
Reply: high polyreactivity

* * *

test: yeast display, Sf9 membrane polyspecificity reagent, FACS + sequencing; frameworks hold sequencing errors
MEASURED METRIC: polyreactivity (PSR sort gate)

Below, each entry is followed by its recorded polyreactivity (PSR sort gate) result.
PRIMARY SEQUENCE	polyreactivity (PSR sort gate)
QVQLVESGGGLVQAGGSLRLSCAAYGRTLRGYAMGWYRQAPGKERELVAALTWSGGSTYYADSVKGRFTISRDHAKNTVYLQMNSLKPEDTAVYYCNARSYPDLYDYWGQGTQVTVSS	low polyreactivity
QVQLVESGGGLVQAGGSLRLSCAASGRIFGGYAMGWYRQAPGKERELVATITANGGRTRYADSVKGRFTISRDNAKNTVYLQMNSLKPEDTAVYYCARVYYSSSGYGYWGQGTQVTVSS	high polyreactivity
QVQLVESGGGLVQAGGSLRLSCAASGYIFPYYPMGWYRQAPGKQRELVAAISRSGGGTYYADSVKGRFTISRDIANNTVYLQMNSLKPEDTALYYCNRRSGHVHEYDYWGQGTQVTVSS	low polyreactivity
QVQLVESGGGLVQAGGSLRLSCAASGRIFGGYAMGWYRQAPGKERELVAAISWRGGTTYYADSVKGRFTISRDNAKNTVYLQMNSLKQEDTAVYYCNADVVRYRHWHRGDYWGQGTQVTVSS	low polyreactivity

Please turn your attention to the following entry.
Ask: If you can, please state the reported polyreactivity (PSR sort gate) value of QVQLVESGGGLVQAGGSLRLSCAASGRIFTRYAMGWYRQAPGKERELVATITRRGGSTYYADSVKGRFTISRDNAKNTVYLQMNSLKPEDTAVYYCAKDRTTSSFGEYDYWGQGTQVTVSS .
Reply: high polyreactivity

* * *

experiment: yeast display, Sf9 membrane polyspecificity reagent, FACS + sequencing; frameworks hold sequencing errors
MEASURED METRIC: polyreactivity (PSR sort gate)

Some solved cases for reference:
PRIMARY SEQUENCE	MEASURED METRIC	OBSERVED MEASUREMENT
QVQLVESVGGFVQAGGSLRLSCAASGFTFRIYAMGLYRKATVKERELVAGITWSVGSTYYADSVKGRFTISRDNAKNTVYLQMNSLKPEETAVYYCAVRRNQHVVQLYYWGQGTQGTVSS	polyreactivity (PSR sort gate)	low polyreactivity
QVQIVESGGGIVQAGGSLRLSCAASGFIFVFNAMGWNRKAPGKERELVAAINGGDNTNYADSVKGRFTISRDNAKNTVYLQINSLKPEDTAVYYCAAEGEDSMWTGYDYDYWGQGTQVTVSS	polyreactivity (PSR sort gate)	low polyreactivity
QVQLVESGGGLVQAGGSLRLSCAASGFIFRWYAMGWYRQAPGKERELVAAISSSSGSTYYADSVKGRFTISRDNAKNTVYLQMNSLKPEDTAVYYCAAESNRRFEGEYWGQGTQVTVSS	polyreactivity (PSR sort gate)	high polyreactivity
QDQLVESGGGLVQAGGSLRLSCAASGYIFSTYAMGWYRQAPGKERELVAAISSSGGSTYYADSVKGRFTISRDNAKNTVFLQMNSLKPEDTAVYYCYAGKHVRQRYDHWGQGTQVSVSS	polyreactivity (PSR sort gate)	high polyreactivity

Ask: Reported polyreactivity (PSR sort gate) for QVQLVESGGGLVQAGGSLRLSCAASGSIFYFNAMGWYRQAPGKERELVAAITYSGGSTYYADSVKGRFTISRDNAKNTFYLQMNILKPEDTAVYYCAAERRTFPLRIFDYWGQGTQVTVSS : what is it?
Reply: low polyreactivity

Ask: Given QVQLVESGGGLVQAGGSLRLSCAASGRTFQTNDMGLYRKAPGKERELVAAISRRGGSTYYADSVKGRFTISRDNAKNTVYLQMNSLKPEDTAVYYCAATRLSRYDYWGQGTQVTVSS , state its recorded polyreactivity (PSR sort gate).
Reply: low polyreactivity

Ask: Quick one: polyreactivity (PSR sort gate) for QLQLVESGGGIVQAGGSLRLSCAASGSTFLRNAMGRYRQAPGKKGSGVATISYDGYSTYYADSVKGRLTISRDNAKNSFYLQMNSLKPEDTAVYYCAASYSLTFWDKDDYWGQGSQVTVSS ?
Reply: low polyreactivity

Ask: Record request: polyreactivity (PSR sort gate) value, item QVQLVESGGGLVQAGGSLRLSCAASGSIFRSYGMGWYRQAPGKDRELVPSISRRGGSTYYADSVKGRFTISRDNAKNTVYLQTNSLKPEDTAVYYCAAVRYNSRVSTTPSEMYYWGQGTQVTVSS
Reply: low polyreactivity

Ask: Please give the measured polyreactivity (PSR sort gate) for this sequence: QVQLVESGGGLVQAGGSLRLSCAASGSIFTHNAMGWYRQAHGKERELVAAISSGGSTNYADSVKGRFTISRDNAKNTVYLQMNSLKPEDTAVYYCAKSIDGWYWRRRRYDYWGQGTQVTVSS
Reply: low polyreactivity

Ask: I have this sequence here, QVQLVESGGGLVQAGGSLRLSCAASGNTFTRNAMGWYRQAPGKERELVAAITGRGGTYYADSVKGRFTISRDNAKNTVYLQMNSLKPEDTAVYYCAAASVTRRDLDYWGQGTQVTVSS , and I need its recorded polyreactivity (PSR sort gate).
Reply: high polyreactivity

Ask: Entry QVQLVESGGGLVQAGGSLRLSCAASGSTFAPYAMGWYRQAPGKERELVAVITWSGGRTYYADSVKGRFTISRDNAKNTVYLQMNSLKPEDTAVYYCNDVPLLQGFNYWGQGTQGTVSS : reported polyreactivity (PSR sort gate) = ?
Reply: high polyreactivity
